Recorded EC50 (read off the curve) values for a group of binders are listed next.
- assayed_target: T1, recombinant human IL-23 (human, UniProt Q9NPF7 20-189; P29460 23-328)
- T1 construct: also called hIL-23
- T1 sequence 1: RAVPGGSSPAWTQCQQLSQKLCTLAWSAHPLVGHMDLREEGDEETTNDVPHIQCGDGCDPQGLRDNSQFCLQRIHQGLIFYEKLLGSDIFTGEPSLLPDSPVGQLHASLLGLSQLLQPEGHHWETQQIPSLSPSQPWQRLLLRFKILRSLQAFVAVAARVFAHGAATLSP
- T1 sequence 2: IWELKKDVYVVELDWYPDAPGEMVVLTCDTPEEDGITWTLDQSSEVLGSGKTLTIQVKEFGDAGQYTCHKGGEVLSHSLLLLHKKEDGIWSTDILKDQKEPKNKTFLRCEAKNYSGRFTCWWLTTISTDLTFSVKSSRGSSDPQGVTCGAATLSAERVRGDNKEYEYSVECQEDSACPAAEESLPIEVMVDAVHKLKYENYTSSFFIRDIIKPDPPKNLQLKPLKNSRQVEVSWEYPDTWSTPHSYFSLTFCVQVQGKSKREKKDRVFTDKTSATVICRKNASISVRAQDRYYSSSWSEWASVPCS
- assay_summary: sandwich ELISA (optimised protocol, OD450): plate coated with anti-human IL-12, antibody pre-incubated with constant human IL-23, bound antibody detected with anti-human IgG gamma chain HRP; purified antibody

Reference set (4 entries):
• chimeric 8C92H6 HC1LC1 (antibody, V domains shown, Murine variable regions with human constant regions; also called 8C92H6.HC1LC1 Chimera; 8C9 chimera) VH: QVQLQQSGAELARPGTSVKLSCKASGYTFTSYGITWVKQRTGQGLEWIGENYPRSGNTYYNEKFKGKATLTADKSSSTAYMELRSLTSEDSAVYFCARCEFISTVVAPYYYALDYWGQGTSLVTVS VL: DIVLTQSPASLAVSLGQKATISCKASKKVTIFGSISALHWYQQKPGQPPKLIYNGAKLESGVSARFSDSGSQNRSPFGNQLSFTLTIDPVEADDAATYYCLQNKEVPYTFGGGTKLEIKR = ~0.1 nM
• A3N1 (antibody, human IgG1, kappa, V domains shown, Full length chains) VH: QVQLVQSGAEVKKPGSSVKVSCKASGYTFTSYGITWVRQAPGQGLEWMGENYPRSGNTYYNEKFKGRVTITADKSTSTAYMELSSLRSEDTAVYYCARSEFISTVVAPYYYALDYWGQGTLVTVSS VL: DIVMTQTPLSLSVTPGQPASISCKASKKVTIFGSISALHWYLQKPGQPPQLIYNGAKLESGVSDRFSDSGSQNRSPFGNQLSFTLKISRVEAEDVGVYYCLQNKEVPYTFGGGTKVEIKR = ~0.04 nM
• A3M0 (antibody, human IgG1, kappa, V domains shown, Full length chains; also called humanized mAb A3M0) VH: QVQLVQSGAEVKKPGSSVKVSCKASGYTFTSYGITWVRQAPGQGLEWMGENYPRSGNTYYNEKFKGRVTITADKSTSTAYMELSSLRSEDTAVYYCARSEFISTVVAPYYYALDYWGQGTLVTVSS VL: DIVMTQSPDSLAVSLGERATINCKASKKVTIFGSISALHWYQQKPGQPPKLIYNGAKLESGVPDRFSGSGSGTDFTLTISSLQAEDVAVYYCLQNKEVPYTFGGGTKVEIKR = ~0.03 nM
• A3M1 (antibody, human IgG1, kappa, V domains shown, Full length chains) VH: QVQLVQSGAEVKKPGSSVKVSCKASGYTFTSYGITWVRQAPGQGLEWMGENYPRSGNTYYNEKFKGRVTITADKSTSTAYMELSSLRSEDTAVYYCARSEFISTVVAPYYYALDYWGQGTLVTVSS VL: DIVMTQSPDSLAVSLGERATINCKASKKVTIFGSISALHWYQQKPGQPPKLIYNGAKLESGVSDRFSDSGSQNRSPFGNQLSFTLTISSLQAEDVAVYYCLQNKEVPYTFGGGTKVEIKR = ~0.04 nM

Tell me measured EC50 (read off the curve) for A3N2 (antibody, human IgG1, kappa, V domains shown, Full length chains) VH: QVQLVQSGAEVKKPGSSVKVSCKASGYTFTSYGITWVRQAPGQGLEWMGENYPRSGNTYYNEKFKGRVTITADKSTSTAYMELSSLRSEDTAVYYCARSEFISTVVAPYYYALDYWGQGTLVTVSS VL: DIVMTQTPLSLSVTPGQPASISCKASKKVTIFGSISALHWYLQKPGQPPQLIYNGAKLESGVSDRFSDSGSGTDFTLKISRVEAEDVGVYYCLQNKEVPYTFGGGTKVEIKR please.
~0.04 nM
